IC50 values by entry
Target: rat M1 W101A receptor (Rattus norvegicus, UniProt P08482, W101A)
Sequence (P08482 1-460 W101A): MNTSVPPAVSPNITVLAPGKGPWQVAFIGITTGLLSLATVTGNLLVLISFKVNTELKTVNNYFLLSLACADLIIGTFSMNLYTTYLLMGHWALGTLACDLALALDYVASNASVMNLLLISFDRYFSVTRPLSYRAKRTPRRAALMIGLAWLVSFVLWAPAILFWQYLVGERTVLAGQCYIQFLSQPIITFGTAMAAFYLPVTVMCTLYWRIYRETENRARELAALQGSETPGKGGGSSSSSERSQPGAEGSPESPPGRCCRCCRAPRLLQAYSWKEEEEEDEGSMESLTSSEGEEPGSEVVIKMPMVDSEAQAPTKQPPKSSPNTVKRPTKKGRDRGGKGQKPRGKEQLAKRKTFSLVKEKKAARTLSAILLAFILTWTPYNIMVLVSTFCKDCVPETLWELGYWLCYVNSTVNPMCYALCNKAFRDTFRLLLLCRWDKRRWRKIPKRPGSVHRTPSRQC
Experiment: ^3H-NMS radioligand binding, W101A
Respond numerically; units are nM and should not be typed.

Field: example entries. Status: answers known.
{"MOLECULAR STRING": "CCCCC1CCN(CCCC(=O)c2ccccc2C)CC1", "SYSTEM TESTED": "rat M1 W101A receptor (Rattus norvegicus, UniProt P08482, W101A)", "REPORTED VALUE": 50.1}
{"MOLECULAR STRING": "Clc1ccc2c(c1)N=C(N1CCNCC1)c1ccccc1N2", "SYSTEM TESTED": "rat M1 W101A receptor (Rattus norvegicus, UniProt P08482, W101A)", "REPORTED VALUE": 126}

Challenge: Would you kindly share the measured IC50 for "CCCCC1CCN(CCCN2C(=O)COc3cc(F)ccc32)CC1" ?
Response given: 3.16
